- System: MOLT-4 leukemia
- protocol-details: NCI tumour cell line growth inhibition, 48 h
measured-quantity: TGI

Look over these answered cases.
[
  {
    "compound": "OC1(c2ccccc2)C2CCN(CC2)C1CN1CCOCC1 (configuration not stated)",
    "TGI": "> 100 µM"
  },
  {
    "compound": "Nc1nc(I)nc2c1ncn2C1OC(COS(N)(=O)=O)C(O)C1O (configuration not stated)",
    "TGI": "0.0416 µM"
  },
  {
    "compound": "CN(CCC(=O)O)C1=Nc2ccc(Cl)cc2C(c2ccccc2)=[N+]([O-])C1",
    "TGI": "> 100 µM"
  }
]

Look at each compound and report its TGI.
1. C[N+]1=C(/C=C/c2ccc(O)c3ncccc23)C(C)(C)c2ccccc21
2. O=C(CCN(C(=O)O)S(=O)(=O)c1ccc(NC(=O)c2ccccc2)cc1)NC1CCCCC1
3. CCCCC(=O)c1ccc2ccccc2c1O
4. O=C(O)c1nn(-c2ccccc2-c2n[nH]c(=O)[nH]c2=O)c(=O)[nH]c1=O

*A*
1. > 100 µM
2. 45.9 µM
3. > 100 µM
4. > 100 µM
